Data provenance is the Immune Epitope Database (IEDB).

# assay target: HLA-B*48:01
# protocol notes: IEDB peptide-MHC binding, purified MHC/direct/fluorescence; filed as Kd, often an IC50 or EC50 that approximates it; bounds were set here for any values at or beyond the usual limits of such assays
# stated conditions: source organism: Dengue virus 1 Singapore/S275/1990
readout: Kd

Q: # get_value(readout='Kd', item= `RKHGGMLVR` )
Result: ≥ 20 µM

====

# assay target: HLA-A*02:01
# protocol notes: IEDB peptide-MHC binding, purified MHC/competitive/fluorescence; filed as Kd, often an IC50 or EC50 that approximates it; bounds were set here for any values at or beyond the usual limits of such assays
# stated conditions: source organism: Vaccinia virus L-IPV
readout: pKd
Note: pKd values are expressed as the negative base-10 logarithm of concentration in M.

Q: Given the sequence `RLYDYFTRV` , what is its reported pKd?
Result: 8.41
